assay.system: human glucagon receptor (human) (UniProt P47871)
Sequence (P47871 26-477): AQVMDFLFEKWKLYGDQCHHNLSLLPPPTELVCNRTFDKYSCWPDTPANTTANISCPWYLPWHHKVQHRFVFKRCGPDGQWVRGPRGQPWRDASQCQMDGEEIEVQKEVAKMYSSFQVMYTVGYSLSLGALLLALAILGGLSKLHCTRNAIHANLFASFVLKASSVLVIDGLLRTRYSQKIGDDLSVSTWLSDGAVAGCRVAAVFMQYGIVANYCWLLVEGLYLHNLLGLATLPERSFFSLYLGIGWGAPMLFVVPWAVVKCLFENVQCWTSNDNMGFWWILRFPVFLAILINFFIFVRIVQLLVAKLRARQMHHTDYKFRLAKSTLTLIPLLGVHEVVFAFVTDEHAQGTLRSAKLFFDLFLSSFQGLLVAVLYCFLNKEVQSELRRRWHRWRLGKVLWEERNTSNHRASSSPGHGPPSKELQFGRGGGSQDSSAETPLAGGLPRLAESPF
test.method.notes: cell-based or functional assay
quantity.name: cAMP Rel EC50 (1% HSA) (nM)
Number only, in nM; omit the unit.

In the examples that follow, each entry is paired with its recorded cAMP Rel EC50 (1% HSA).
>>> observed_value("YXQGTXTSDXXIXLDXKAAXEFIEXLIEGGPSSGAPPPSGSEE (synthetic construct; SITE 2: note = 2-Aminoisobutyric Acid; SITE 6: note = alpha-methyl-2-fluoro-L-phenylalanine; SITE 10: note = 3-(4-Pyridyl)-L-alanine; SITE 11: note = alpha-methyl-L-serine; SITE 13: note = alpha-methyl-leucine; SITE 16: note = L-ornithine; SITE 17: note = Lysine is chemically mo) [Example 704]")
239
>>> observed_value("YXQGTXTSDXSIXLDXXAQXXFIEXLIEGGPSSGEPPPETE (synthetic construct; SITE 2: note = 2-Aminoisobutyric Acid; SITE 6: note = alpha-methyl-2-fluoro-L-phenylalanine; SITE 10: note = 3-(4-Pyridyl)-L-alanine; SITE 13: note = alpha-methyl-leucine; SITE 16: note = L-ornithine; SITE 17: note = Ornithine is chemically modified through conjugation of the ep) [Example 1209]")
124

INPUT: Recorded cAMP Rel EC50 (1% HSA) of YXQGTXTSDXXIXLDXQAQXEFIEXLIEGGPSSGAPPPSGGGE (not fully specified; synthetic construct; SITE 2: note = 2-Aminoisobutyric Acid; SITE 6: note = alpha-methyl-2-fluoro-L-phenylalanine; SITE 10: note = 3-(4-Pyridyl)-L-alanine; SITE 11: note = alpha-methyl-L-serine; SITE 13: note = alpha-methyl-leucine; SITE 16: note = L-ornithine; SITE 20: note = 3-(4-Pyridyl)-L-alanine) [Example 1234] , please.
OUTPUT: 11.7
